# Subject Of Test: indoleamine 2,3-dioxygenase (IDO) (Homo sapiens, UniProt P14902)
# Construct: endogenous in cells
# Sequence (P14902 whole entry): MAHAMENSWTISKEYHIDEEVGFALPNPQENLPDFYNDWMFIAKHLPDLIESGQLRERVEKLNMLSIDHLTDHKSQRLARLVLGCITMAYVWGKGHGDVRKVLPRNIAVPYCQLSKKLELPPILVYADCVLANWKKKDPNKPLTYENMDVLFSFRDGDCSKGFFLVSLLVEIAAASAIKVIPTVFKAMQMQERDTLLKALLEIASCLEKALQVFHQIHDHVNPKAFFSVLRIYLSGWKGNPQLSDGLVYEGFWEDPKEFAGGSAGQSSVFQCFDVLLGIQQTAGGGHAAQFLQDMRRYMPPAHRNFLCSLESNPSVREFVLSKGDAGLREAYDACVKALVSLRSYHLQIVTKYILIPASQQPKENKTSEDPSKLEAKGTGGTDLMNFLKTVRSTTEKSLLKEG
# Test Summary: HeLa cell-based indoleamine 2,3-dioxygenase (IDO) assay, kynurenine production
# Condition Info: HeLa cells, IFNγ 25 ng/mL, 48 hour incubation, kynurenine absorbance at 480 nm
pIC50: −log10 of the molar value.
Reported Endpoint: pIC50

- Compound: "CC(C(=O)NC12CC3CC(CC(C3)C1)C2)[C@H]1CC[C@]2(CC1)OCc1ccccc12 (mixture of isomers) [Example 6]"
  Subject Of Test: "indoleamine 2,3-dioxygenase (IDO) (Homo sapiens, UniProt P14902)"
  pIC50: 5.89

[P] C[C@H](C(=O)Nc1ccc(Cl)cc1)[C@H]1CC[C@@]2(CC1)COc1ccccc12 [Example 15]
[Q] CC(NC(=O)C12CCC(Cl)(CC1)CC2)[C@H]1CC[C@]2(CC1)OCc1ccccc12 (mixture of isomers) [Example 13]
Field: lower recorded pIC50 (choose P or Q ) Give the chosen item's label as your response. Q
(Q: 6.20, P: 7.70)

Where these numbers come from: patent US11203592B2
